# System: MDR1
# Test Description: in vitro
# Protocol Conditions: dog, MDCK-MDR1, pH 7.4
Quantity Measured: efflux ratio at 120 min, 5 μM
Please reply with the value in numeric form only.

In the examples that follow, each entry is paired with its recorded efflux ratio at 120 min, 5 μM.
Find the recorded efflux ratio at 120 min, 5 μM belonging to CN(C)C(=O)c1cc(O)c(-c2ccc(N(C)[C@H]3C[C@@H]4CC[C@H]([C@H]3F)N4C)nn2)cc1F (single isomer, unassigned) [Compound 104B] and report it. 56

Now consider CN(c1ccc(-c2cc3cc[nH]c(=O)c3s2)nn1)[C@@H]1C[C@H]2CC[C@H](N2)[C@@H]1F (single isomer, unassigned) [Compound 66A] . 51

Further cases:
Find the recorded efflux ratio at 120 min, 5 μM belonging to Cc1nc2cc(-c3ccc(N(C)[C@@H]4C[C@H]5CC[C@@H]([C@@H]4F)N5C)nn3)c(O)cc2c(=O)n1C [Compound 105A] and report it. 99

Now consider CN(c1ccc(-c2cc3ncn(CC(F)(F)F)c(=O)c3cc2O)nn1)[C@@H]1C[C@H]2CC[C@@H]([C@@H]1F)N2C (single isomer, unassigned) [Compound 108A] . 49

Now consider CN(C)C(=O)c1cc(O)c(-c2ccc(N(C)[C@@H]3C[C@H]4CC[C@H](N4)[C@@H]3F)nn2)cc1F (single isomer, unassigned) [Compound 53A] . 127
